test: qHTS assay for re-activators of p53 using a Luc reporter; details: H1299 p53-A138V BP100-luciferase reporter, luminescence, 24 h; series mostly up to 92.2 µM; note: nearly all actives have a fitted effect of over 45% in size; note: potency is the fitted concentration of half-maximal effect
About 200 (0.062%) of roughly 320,000 compounds were called active. Inconclusive results (about 6%) are left out. What follows is part of a selection rich in actives, with near analogues and random picks from the rest.

molecule	Potency
CSc1ccc(/C=N\NC(=O)CC(=O)NC(C)C)cc1	inactive
CSc1ccc(/C=N/NC(=O)c2cccc(Cl)c2)cc1	10 µM (active)
O=C(N/N=C/c1ccc(Cl)c(Cl)c1)c1ccc2nc[nH]c2c1	inactive
COc1ccc(C(=O)COC(=O)CN2C(=O)C3CC=CCC3C2=O)c(OC)c1 (centres undefined)	inactive

====

experiment: qHTS assay for re-activators of p53 using a Luc reporter; details: H1299 p53-A138V BP100-luciferase reporter, luminescence, 24 h; series mostly up to 92.2 µM; note: nearly all actives have a fitted effect of over 45% in size
The whole screen tested about 320,000 compounds, of which about 200 (0.062%) were called active. About 6% were inconclusive and are not listed. The call rests on the fitted dose curve; in most records, active means well fitted activation curve with a large enough effect; inconclusive means small, poorly fitted or top-dose-only effect; inactive means no such curve, though single readings can be large or run the other way. The full list was thinned out, with actives kept by preference.
Classes to choose from: Y (active), N (inactive)

Worked set:
molecule	label-value
C[C@H](CO)N1C[C@H](C)[C@@H](CN(C)Cc2ccc(-c3ccccc3)cc2)Oc2ccc(NC(=O)Cn3cnnn3)cc2C1=O	N
CCOC(=O)C1CCCN(C(=O)CSc2nnc3nc(C)cc(C)n23)C1 (stereo not drawn)	N
C#CCOCCOCCOCCNc1nc(N2CCN(C(=O)[C@H](CCC(=O)O)n3cc(CN)nn3)CC2)nc(N2CCN(C(=O)[C@H](CCC(=O)O)n3cc(CN)nn3)CC2)n1	N
Cn1c(-c2ccc(C(F)(F)F)cc2)cc2onc(-c3ccccc3)c2c1=O	Y
O=C(C[C@@H]1C/C=C\CCC(=O)OC[C@@H]2CCCN2C1=O)NCCO	N

(Q) // param item: `O=C(CSc1ncn[nH]1)Nc1nc(-c2cccc([N+](=O)[O-])c2)cs1` ; yields the recorded call
(A) N

(Q) // param item: `O=c1c2ccccc2c(-c2ccc(F)cc2)nn1-c1ccc(C(F)(F)F)cc1` ; yields the recorded call
(A) N

(Q) // param item: `Oc1ccccc1-c1cc(-c2ccc(Cl)cc2)n[nH]1` ; yields the recorded call
(A) Y

(Q) // param item: `Cc1onc(-c2ccccc2)c1C(=O)N1CCN(S(=O)(=O)c2ccccc2C(F)(F)F)CC1` ; yields the recorded call
(A) N

====

test: qHTS assay for re-activators of p53 using a Luc reporter; details: H1299 p53-A138V BP100-luciferase reporter, luminescence, 24 h; series mostly up to 92.2 µM; note: nearly all actives have a fitted effect of over 45% in size
Out of some 320,000 compounds screened, about 200 (0.062%) were called active. Not shown: some 6% with an inconclusive outcome. Many of the other results were omitted from the sample, so actives are more common in it than they were.
assay-metric: outcome

In the examples that follow, each entry is paired with its recorded outcome.
molecule	value
O=C(COC(=O)c1ccncc1)Nc1ccc2c(c1)OCO2	inactive
CC(C)n1cnc2c(NCc3ccccc3)cc(OCC3CCN(C)CC3)cc21	inactive
CC[C@]1(C(=O)OC)[C@H]2C(=O)N(Cc3ccccc3)C(=O)[C@H]2[C@H]2CN=C(SCc3ccc(Cl)cc3)N21	inactive
C=CC[C@@H](CC(=O)N[C@H](CO)Cc1ccccc1)C(=O)N[C@H](C)COC(=O)[C@@H](CC=C)Cc1ccc(F)cc1	inactive
COc1ccc(Br)cc1CN(C)C(=O)C1CC(=O)N(C2CCCC2)C1 (centres undefined)	inactive
COc1ccc(/C=C/C(=O)OCC(=O)NC2CCCCCC2)cc1OC	inactive

(Q) Field request: outcome | item: `COc1ccc(CNC(=O)C[C@H]2C[C@H](C(=O)N3CCOCC3)[C@@]3(C)c4[nH]c5cc(CCC(=O)N(C)C)ccc5c4CCN3C2=O)cc1OC`
(A) inactive

(Q) Field request: outcome | item: `CC[C@]1(C(=O)OC)[C@H]2C(=O)N(C)C(=O)[C@H]2[C@H]2CN(C)C(=NCc3ccccc3)N21`
(A) inactive

(Q) Field request: outcome | item: `COc1cc(OC)c(C(=O)NNC(=O)c2ccccc2-n2cccc2)cc1OC`
(A) inactive

====

assay: qHTS assay for re-activators of p53 using a Luc reporter; settings: H1299 p53-A138V BP100-luciferase reporter, luminescence, 24 h; series mostly up to 92.2 µM; note: nearly all actives have a fitted effect of over 45% in size
The whole screen tested about 320,000 compounds, of which about 200 (0.062%) were called active. Another 6% or so got no clear call; they are omitted. The call rests on the fitted dose curve; in most records, active means well fitted activation curve with a large enough effect; inconclusive means small, poorly fitted or top-dose-only effect; inactive means no such curve, though single readings can be large or run the other way. Many of the other results were omitted from the sample, so actives are more common in it than they were.
Classes to choose from: 1 (yes) = active, 0 (no) = inactive

molecule	label-value
O=C1N[C@@H](c2ccccc2)COC(=O)[C@H](Cc2ccc(F)cc2)C/C=C\C[C@@H]1CC(=O)N(CCO)Cc1ccccc1	0 (no)

(Q) // param item: `Brc1ccc(-c2noc(-c3ccccc3)n2)o1` ; yields the recorded call
(A) 0 (no)

(Q) // param item: `CCN(C[C@H]1N[C@@](CC)(C(=O)OC)[C@H]2C(=O)N(Cc3ccccc3)C(=O)[C@@H]12)S(=O)(=O)c1ccccc1` ; yields the recorded call
(A) 0 (no)

(Q) // param item: Cc1ccc(NC(=O)C2CCC(C(C)(C)C)CC2)cc1S(=O)(=O)N1CCOCC1 (stereo not given) ; yields the recorded call
(A) 0 (no)

(Q) // param item: `CCCCNS(=O)(=O)CCNCc1ccccc1OC` ; yields the recorded call
(A) 0 (no)

====

experiment: qHTS assay for re-activators of p53 using a Luc reporter; conditions: H1299 p53-A138V BP100-luciferase reporter, luminescence, 24 h; series mostly up to 92.2 µM; note: nearly all actives have a fitted effect of over 45% in size
Hit rate of the full screen: of about 320,000 compounds, about 200 (0.062%) were called active. Another 6% or so got no clear call; they are omitted. Calls come from the whole dose curve; as a rule, active = well fitted activation curve with a large enough effect; inconclusive = small, poorly fitted or top-dose-only effect; inactive = no such curve, though single readings can be large or run the other way. The sample holds actives, similar compounds and a random draw of the others, so the mix is not that of the screen.
Classes to choose from: true = active, false = inactive

Worked set:
compound	label-value
O=C(NCCC(=O)N1O[C@@H]2C=C[C@H]1C2)OCC1c2ccccc2-c2ccccc21	false
Nc1ncnc2c1ncn2[C@@H]1O[C@H](CNCc2cccn2-c2nccs2)[C@@H](O)[C@H]1O	false
CC[C@@H]1CCCCc2ccccc2[C@@H](C(=O)C[C@H](O)CC(C)=O)OC1=O	false
COc1ccc(CNC(=O)C[C@H]2C[C@H](C(=O)N3CCOCC3)[C@@]3(CCC4CCCC4)c4[nH]c5ccc(Cl)cc5c4CCN3C2=O)cc1OC	false
COc1cc(OC)cc(C(=O)NC(C(=O)N2CCC2)C(C)C)c1 (stereo not drawn)	false

(Q) // param item: `O=C1CCC/C=C\C[C@@H](CC(=O)N(CCO)Cc2ccccc2)C(=O)NCCO1` ; yields the recorded call
(A) false

(Q) // param item: `COc1cc(C)ccc1OCC(=O)OCC(=O)c1ccc[nH]1` ; yields the recorded call
(A) false

(Q) // param item: `Cc1cccc(C)c1Nc1nnc(SCC(=O)NCCCN2CCCC2=O)s1` ; yields the recorded call
(A) false

(Q) // param item: O=C(COc1ccc(F)cc1Br)NCC1COc2ccccc2O1 (stereo not drawn) ; yields the recorded call
(A) false

(Q) // param item: `CC(C)n1cnc2c(NCc3ccccc3)cc(N[C@@H](CO)Cc3ccccc3)cc21` ; yields the recorded call
(A) false

====

assay: qHTS assay for re-activators of p53 using a Luc reporter; conditions: H1299 p53-A138V BP100-luciferase reporter, luminescence, 24 h; series mostly up to 92.2 µM; note: nearly all actives have a fitted effect of over 45% in size
Among all 320,000 compounds or so, about 200 (0.062%) were called active. About 6% were inconclusive and are not listed. The call rests on the fitted dose curve; in most records, active means well fitted activation curve with a large enough effect; inconclusive means small, poorly fitted or top-dose-only effect; inactive means no such curve, though single readings can be large or run the other way. This is one part of a sample in which actives are shown more often than they occur.
Classes to choose from: active, inactive

compound	label-value
CC[C@]12c3[nH]c4cc(CCC(=O)N(C)C)ccc4c3CCN1C(=O)[C@@H](CC(=O)NCCCN(C)C)C[C@@H]2C(=O)N1CCN(C(=O)c2ccco2)CC1	inactive
Cc1ccc(CNC(=O)Cn2cnc3c(NCc4ccccc4)ncnc32)o1	inactive
CC(C)CC1NC(=O)c2cc(Cl)ccc2-n2c1nc1ccccc1c2=O (configuration not stated)	inactive
Cc1noc(C)c1S(=O)(=O)N(C)C[C@H]1Oc2c(NC(=O)Nc3ccc4c(c3)OCO4)cccc2C(=O)N([C@H](C)CO)C[C@@H]1C	inactive

(Q) // param item: `O=C(NCCc1ccccc1)c1ccc2c(c1)N(Cc1ccccc1)CCS2` ; yields the recorded call
(A) inactive

(Q) // param item: `CN(C)C(=O)CCc1ccc2c3c([nH]c2c1)[C@]1(C)[C@@H](C(=O)N2CCCCC2)C[C@H](CC(=O)NCCC2=CCCCC2)C(=O)N1CC3` ; yields the recorded call
(A) inactive

(Q) // param item: `COc1ccc(/C=C(\C#N)c2c[nH]c3ccccc23)cc1` ; yields the recorded call
(A) active

(Q) // param item: `C=CCC[C@@H](Cc1ccc(F)cc1)C(=O)OC[C@@H](C)NC(=O)[C@H](CC=C)CC(=O)N(CCO)Cc1ccccc1` ; yields the recorded call
(A) inactive

(Q) // param item: `O=C(/C=C/c1ccc2c(c1)OCCO2)c1ccc(O)cc1` ; yields the recorded call
(A) active

(Q) // param item: `O=C(CSc1nc2ccccc2c(=O)n1-c1ccccc1F)N1CCOCC1` ; yields the recorded call
(A) inactive

(Q) // param item: `CC(=NNC(=O)c1ccc2nc[nH]c2c1)c1ccc(Br)cc1` ; yields the recorded call
(A) inactive

(Q) // param item: `COc1ccc(-c2nc3cc(C)ccn3c2NC2CCCCC2)cc1SC1CCCCC1` ; yields the recorded call
(A) inactive

(Q) // param item: `CC(=O)N(O)CCCCCNC(=O)CCC(=O)N(O)CCCCCNC(=O)CCC(=O)N(O)CCCCCNC(=O)CCC(=O)O` ; yields the recorded call
(A) inactive
